The origin of these recorded values is ChEMBL document CHEMBL4834393.

Target: Nuclear receptor subfamily 1 group I member 2 (Homo sapiens, UniProt O75469)
Sequence (O75469 whole entry): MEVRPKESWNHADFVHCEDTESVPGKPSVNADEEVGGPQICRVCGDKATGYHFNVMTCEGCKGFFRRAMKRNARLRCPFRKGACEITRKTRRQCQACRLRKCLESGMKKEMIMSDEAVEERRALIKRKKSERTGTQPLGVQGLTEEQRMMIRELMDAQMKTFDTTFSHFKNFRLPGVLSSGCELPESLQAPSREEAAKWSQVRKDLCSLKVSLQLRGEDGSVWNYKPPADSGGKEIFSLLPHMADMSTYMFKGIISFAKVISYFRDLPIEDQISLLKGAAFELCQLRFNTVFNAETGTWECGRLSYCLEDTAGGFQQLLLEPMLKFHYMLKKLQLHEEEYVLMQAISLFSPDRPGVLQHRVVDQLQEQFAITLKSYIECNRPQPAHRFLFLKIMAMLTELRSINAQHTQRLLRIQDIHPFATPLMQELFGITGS
Assay: Displacement of BODIPY FL vindoline from GST-tagged human PXR LBD incubated for 60 mins by TR-FRET assay

>  <Smiles Structure>
COc1ccccc1-n1nnc(S(=O)(=O)c2ccc(C(C)(C)C)cc2)c1C

>  <Tested On>
Nuclear receptor subfamily 1 group I member 2 (Homo sapiens, UniProt O75469)

>  <IC50, nM>
530

$$$$
>  <Smiles Structure>
COc1ccc(OC)c(-n2nnc(S(=O)(=O)c3ccc(C)cc3)c2C)c1

>  <Tested On>
Nuclear receptor subfamily 1 group I member 2 (Homo sapiens, UniProt O75469)

>  <IC50, nM>
3800

$$$$
>  <Smiles Structure>
COc1ccc(C)cc1-c1nc(C)c(S(=O)(=O)c2ccc(C(C)(C)C)cc2)[nH]1

>  <Tested On>
Nuclear receptor subfamily 1 group I member 2 (Homo sapiens, UniProt O75469)

>  <IC50, nM>
800

$$$$
>  <Smiles Structure>
COc1ccc(OC)c(-n2nnc(S(=O)(=O)Cc3ccccc3)c2C)c1

>  <Tested On>
Nuclear receptor subfamily 1 group I member 2 (Homo sapiens, UniProt O75469)

>  <IC50, nM>
1000

$$$$
>  <Smiles Structure>
COc1cc(C)c(Cl)cc1-n1nnc(S(=O)(=O)c2ccc(C(C)(C)C)cc2)c1C

>  <Tested On>
Nuclear receptor subfamily 1 group I member 2 (Homo sapiens, UniProt O75469)

>  <IC50, nM>
1200

$$$$
>  <Smiles Structure>
COc1ccc(Cl)cc1-c1nc(C)c(S(=O)(=O)c2ccc(C(C)(C)C)cc2)[nH]1

>  <Tested On>
Nuclear receptor subfamily 1 group I member 2 (Homo sapiens, UniProt O75469)

>  <IC50, nM>
900

$$$$
>  <Smiles Structure>
COC(=O)c1cc(OC)c(-n2nnc(S(=O)(=O)c3ccc(C(C)(C)C)cc3)c2C)cc1Cl

>  <Tested On>
Nuclear receptor subfamily 1 group I member 2 (Homo sapiens, UniProt O75469)

>  <IC50, nM>
700

$$$$
>  <Smiles Structure>
COc1ccc(C)cc1-n1nnc(S(=O)(=O)c2ccc(C(C)(C)C)cc2)c1C(C)=O

>  <Tested On>
Nuclear receptor subfamily 1 group I member 2 (Homo sapiens, UniProt O75469)

>  <IC50, nM>
260

$$$$
>  <Smiles Structure>
COc1cc(C(C)C)c(Cl)cc1-n1nnc(S(=O)(=O)c2ccc(C(C)(C)C)cc2)c1C

>  <Tested On>
Nuclear receptor subfamily 1 group I member 2 (Homo sapiens, UniProt O75469)

>  <IC50, nM>
1100

$$$$
>  <Smiles Structure>
COc1cc(C#N)c(C)cc1-n1nnc(S(=O)(=O)c2ccc(C(C)(C)C)cc2)c1C

>  <Tested On>
Nuclear receptor subfamily 1 group I member 2 (Homo sapiens, UniProt O75469)

>  <IC50, nM>
1070

$$$$
>  <Smiles Structure>
COc1ccc(Cl)cc1-c1nc(C)c(S(=O)(=O)c2ccc(C(C)(C)C)cc2)n1C

>  <Tested On>
Nuclear receptor subfamily 1 group I member 2 (Homo sapiens, UniProt O75469)

>  <IC50, nM>
350

$$$$
>  <Smiles Structure>
COc1cc(C(C)C)c(C)cc1-n1nnc(S(=O)(=O)c2ccc(C(C)(C)C)cc2)c1C

>  <Tested On>
Nuclear receptor subfamily 1 group I member 2 (Homo sapiens, UniProt O75469)

>  <IC50, nM>
2000

$$$$
>  <Smiles Structure>
COc1ccc(OC)c(-n2nnc(S(=O)(=O)c3ccc(O)cc3)c2C)c1

>  <Tested On>
Nuclear receptor subfamily 1 group I member 2 (Homo sapiens, UniProt O75469)

>  <IC50, nM>
8000

$$$$
>  <Smiles Structure>
COc1ccc(C)cc1-n1nnc(S(=O)(=O)c2ccc(C(C)(C)C)cc2)c1N

>  <Tested On>
Nuclear receptor subfamily 1 group I member 2 (Homo sapiens, UniProt O75469)

>  <IC50, nM>
280

$$$$
>  <Smiles Structure>
COc1ccc(C)cc1-n1cc(S(=O)(=O)c2ccc(C(C)(C)C)cc2)nn1

>  <Tested On>
Nuclear receptor subfamily 1 group I member 2 (Homo sapiens, UniProt O75469)

>  <IC50, nM>
500

$$$$
>  <Smiles Structure>
COc1cc(Br)c(Cl)cc1-n1nnc(S(=O)(=O)c2ccc(C(C)(C)C)cc2)c1C

>  <Tested On>
Nuclear receptor subfamily 1 group I member 2 (Homo sapiens, UniProt O75469)

>  <IC50, nM>
550

$$$$
>  <Smiles Structure>
CCc1cc(OC)c(-n2nnc(S(=O)(=O)c3ccc(C(C)(C)C)cc3)c2C)cc1Cl

>  <Tested On>
Nuclear receptor subfamily 1 group I member 2 (Homo sapiens, UniProt O75469)

>  <IC50, nM>
1500

$$$$
>  <Smiles Structure>
COc1ccc(C)cc1-c1ncc(S(=O)(=O)c2ccc(C(C)(C)C)cc2)[nH]1

>  <Tested On>
Nuclear receptor subfamily 1 group I member 2 (Homo sapiens, UniProt O75469)

>  <IC50, nM>
1400

$$$$
>  <Smiles Structure>
COc1ccc(Cl)cc1-n1nnc(S(=O)(=O)c2ccc(C(C)(C)C)cc2)c1N

>  <Tested On>
Nuclear receptor subfamily 1 group I member 2 (Homo sapiens, UniProt O75469)

>  <IC50, nM>
500

$$$$
>  <Smiles Structure>
COc1cc(-n2nnc(S(=O)(=O)c3ccc(C(C)(C)C)cc3)c2C)c(OC)cc1F

>  <Tested On>
Nuclear receptor subfamily 1 group I member 2 (Homo sapiens, UniProt O75469)

>  <IC50, nM>
4000

$$$$

----------
Target: PXR (NR1I2) (Homo sapiens, UniProt O75469)
Sequence (O75469 whole entry): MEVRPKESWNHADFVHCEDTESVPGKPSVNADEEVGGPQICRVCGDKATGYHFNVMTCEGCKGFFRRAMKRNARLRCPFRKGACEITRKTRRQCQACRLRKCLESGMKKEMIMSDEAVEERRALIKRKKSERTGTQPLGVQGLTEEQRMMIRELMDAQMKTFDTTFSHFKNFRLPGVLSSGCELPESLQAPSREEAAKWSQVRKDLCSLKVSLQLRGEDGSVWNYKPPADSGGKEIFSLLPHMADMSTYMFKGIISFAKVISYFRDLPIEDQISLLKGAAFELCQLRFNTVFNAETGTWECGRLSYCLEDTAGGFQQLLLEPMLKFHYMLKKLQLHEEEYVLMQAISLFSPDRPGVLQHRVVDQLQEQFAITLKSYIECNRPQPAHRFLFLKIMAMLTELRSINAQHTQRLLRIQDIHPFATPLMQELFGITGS
Test: Inhibition of human PXR expressed in HepG2 cells co-expressing luciferase gene under control of CYP3A4 promoter at 10 uM incubated for 24 hrs in presence of 5 uM rifampicin by luciferase reporter assay relative to control
Type: cell-based

>  <Smiles Structure>
COc1ccc(OC)c(-n2nnc(S(=O)(=O)c3ccc(C(C)(C)C)cc3)c2C#N)c1

>  <Units Symbol>
%

>  <inhibition at 24 h, 10 µM>
38

$$$$
>  <Smiles Structure>
COc1cc(Cl)c(C)cc1-n1nnc(S(=O)(=O)c2ccc(C(C)(C)C)cc2)c1C

>  <Units Symbol>
%

>  <inhibition at 24 h, 10 µM>
57

$$$$
>  <Smiles Structure>
COc1cc(C(C)=O)c(C)cc1-n1nnc(S(=O)(=O)c2ccc(C(C)(C)C)cc2)c1C

>  <Units Symbol>
%

>  <inhibition at 24 h, 10 µM>
111

$$$$
>  <Smiles Structure>
COc1ccc(C)cc1-n1cc(S(=O)(=O)c2ccc(C(C)(C)C)cc2)nn1

>  <Units Symbol>
%

>  <inhibition at 24 h, 10 µM>
44

$$$$
>  <Smiles Structure>
COc1cc(C#N)c(Cl)cc1-n1nnc(S(=O)(=O)c2ccc(C(C)(C)C)cc2)c1C

>  <Units Symbol>
%

>  <inhibition at 24 h, 10 µM>
44

$$$$
>  <Smiles Structure>
COc1ccc(Cl)cc1-n1nnc(S(=O)(=O)c2ccc(C(C)(C)C)cc2)c1N

>  <Units Symbol>
%

>  <inhibition at 24 h, 10 µM>
78

$$$$
>  <Smiles Structure>
COc1cc(Br)c(Cl)cc1-n1nnc(S(=O)(=O)c2ccc(C(C)(C)C)cc2)c1C

>  <Units Symbol>
%

>  <inhibition at 24 h, 10 µM>
38

$$$$
>  <Smiles Structure>
COC(=O)c1cc(OC)c(-n2nnc(S(=O)(=O)c3ccc(C(C)(C)C)cc3)c2C)cc1C

>  <Units Symbol>
%

>  <inhibition at 24 h, 10 µM>
32

$$$$
>  <Smiles Structure>
COc1ccc(F)cc1-n1nnc(S(=O)(=O)c2ccc(C(C)(C)C)cc2)c1C

>  <Units Symbol>
%

>  <inhibition at 24 h, 10 µM>
70

$$$$
